The origin of these recorded values is patent US9969775B2.

# Emax values compiled below
- TARGET SYSTEM: hCGRP receptor (CALCRL:RAMP1) (Homo sapiens, UniProt O60894+Q16602)
- Construct: host or cells: GeneBLAzer CALCRL:RAMP1-CRE-bla Freestyle 293F
- Sequence (Q16602 23-461): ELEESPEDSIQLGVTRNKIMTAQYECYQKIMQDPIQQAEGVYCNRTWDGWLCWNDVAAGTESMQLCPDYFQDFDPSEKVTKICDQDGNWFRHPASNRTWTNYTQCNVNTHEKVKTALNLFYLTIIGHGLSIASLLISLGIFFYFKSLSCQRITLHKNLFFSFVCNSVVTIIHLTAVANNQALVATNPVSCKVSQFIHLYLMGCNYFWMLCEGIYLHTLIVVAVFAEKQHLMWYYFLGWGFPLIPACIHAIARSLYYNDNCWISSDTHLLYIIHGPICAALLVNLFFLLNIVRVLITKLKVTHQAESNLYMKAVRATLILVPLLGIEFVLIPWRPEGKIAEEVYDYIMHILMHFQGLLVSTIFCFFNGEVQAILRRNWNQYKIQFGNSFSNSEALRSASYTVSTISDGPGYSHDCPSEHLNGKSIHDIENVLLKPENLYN
- Sequence (O60894 27-148): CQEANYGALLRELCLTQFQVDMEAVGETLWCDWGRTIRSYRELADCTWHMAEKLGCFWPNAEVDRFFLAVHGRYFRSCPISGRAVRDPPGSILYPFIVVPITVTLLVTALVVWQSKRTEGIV
- TEST: CGRP receptor antagonist activity measured by cAMP assay (HTRF)
- Assay type: cell-based
- ASSAY SETUP: % MPE: percent of the maximal possible effect; agonist human α-CGRP; read-out: hCGRP-R Efficacy Antag (%) Ave
Bridge positions count the residues as written; N and C are the ends. Square brackets hold non-standard residues; d marks the D form. Peptide text beside a SMILES is read from it. * marks the point of attachment. Phe(3-CN) = N#Cc1cccc(C[C@H](N)C(=O)O)c1; Orn(Me2) = CN(C)CCC[C@H](N)C(=O)O; Benzoyl(4-F) = O=C(c1ccc(F)cc1)*; 3Pal = N[C@@H](Cc1cccnc1)C(=O)O; X1 = O=C(c1ncccc1F)*
Number in %, nothing else.

MOLECULE	TARGET SYSTEM	Emax [%]
CC(C)[C@@H]1NC(=O)[C@H](CC(=O)O)NC(=O)[C@H](CCCN(C)C)NC(=O)[C@@H](NC(=O)[C@H](Cc2ccc(O)cc2)NC(=O)[C@H](NC(=O)c2ncccc2F)C(C)C)CSSC[C@@H](C(=O)N[C@@H](Cc2cccnc2)C(N)=O)NC(=O)[C@H](Cc2ccccc2)NC(=O)[C@@H]2CCCN2C(=O)CNC1=O [Compound 46] (X1-[dV]YC[Orn(Me2)]DVGPFC[3Pal]-NH2; disulfide 3-10)	hCGRP receptor (CALCRL:RAMP1) (Homo sapiens, UniProt O60894+Q16602)	100

We next turn to a different molecule, shown below.
Form field: reported Emax of CC(C)[C@@H]1NC(=O)[C@H](CC(=O)O)NC(=O)[C@H](CCCNC(=N)N)NC(=O)[C@@H](NC(=O)[C@H](Cc2ccc(O)cc2)NC(=O)[C@H](NC(=O)c2ccc(F)cc2)C(C)C)CSSC[C@@H](C(=O)N[C@@H](Cc2cccnc2)C(N)=O)NC(=O)[C@H](Cc2cccc(C#N)c2)NC(=O)[C@@H]2CCCN2C(=O)CNC1=O [Compound 21] ({Benzoyl(4-F)}-[dV]YCRDVGP[Phe(3-CN)]C[3Pal]-NH2; disulfide 3-10)
100
